Tested on: phenol oxidizing enzyme from Acremonium murorum
Conditions: enhancer 250 μM, enzyme 20 mg/l, detergent formulation 2 g/l, pH 9, 30 min, 30° C.
Below, each entry is listed with its recorded Stain bleach performance ΔE, Tomato Extract, With enzyme.
Output: the number by itself.

Some entries whose results are on file:
Compound	Recorded number
Cc1ccc(S(=O)(=O)Nc2cc(Br)c(O)c(Br)c2Br)cc1 [3Brphenol3MeBSA]	27.57
O=S(=O)(Nc1cc(Br)c(O)c(Br)c1Br)c1ccccc1 [Enhancer 3BrphenolBSA]	26.87
O=C(O)CCN1c2ccccc2Sc2ccccc21 [PTP, Phenothiazine-10-propionate]	33.66

IN: For the compound shown here, CCn1c(=NN=c2sc3cc(S(=O)(=O)O)ccc3n2CC)sc2cc(S(=O)(=O)O)ccc21 [ABTS] , give the reported Stain bleach performance ΔE, Tomato Extract, With enzyme.
OUT: 37.56
